Test system: P. aeruginosa
Test: Bactericidal activity assay
Assay type: cell-based, Pseudomonas aeruginosa type 1
Conditions: 1.2 × 10^−7 M Peptide; 5 × 105 P. aeruginosa
observable: Bactericidal Activity, % killing

Value of Bactericidal Activity, % killing reported for the sequence ANIKLSVEFKLFKRHLKWKIIFKLNDGREFSLD [βpep-13] is 0%

---

Test system: endotoxin from E. coli 055:B5
Experiment: Limulus amoebocyte lysate assay (E-TOXATE), endotoxin neutralization
Assay type: biochemical
Conditions: 5.0 × 10^−6 M Peptide; 0.02 U (0.2 pg) endotoxin from E. coli 055:B5; Table 4
observable: Endotoxin Neutralization, % neutralization

Some solved cases for reference:
>>> recorded_result("ANIKLSVEMKLFKRHLKWKIIVKLNDGRELSLD [βpep-8]")
"100%"
>>> recorded_result("SIQDLNVSLKLFRKQAKWKIIVKLNDGRELSLD [βpep-21]")
"100%"
>>> recorded_result("SIQDLNVSMXLFRKQAKWKIIVKLNDGRELSLD [βpep-20]")
"100%"
>>> recorded_result("ANIKLSVEMKLFCY^DWKVCKHVKLNDGRELSLD [βpep-11]")
"100%"
>>> recorded_result("ANIKLSVKWKAQKRFLKMSIIVKLNDGRELSLD [βpep-9]")
"100%"

Value of Endotoxin Neutralization, % neutralization reported for the substance SIQDLNVSMKLFRKQAKWKINVKLNDGRELSLD [βpep-4] is 14.7, n = 3%

These entries and their values trace back to patent US7030087B2.
